# study.target: T1, PUF4 RNA-binding domain (Saccharomyces cerevisiae, UniProt P25339 537-888)
# T1 sequence: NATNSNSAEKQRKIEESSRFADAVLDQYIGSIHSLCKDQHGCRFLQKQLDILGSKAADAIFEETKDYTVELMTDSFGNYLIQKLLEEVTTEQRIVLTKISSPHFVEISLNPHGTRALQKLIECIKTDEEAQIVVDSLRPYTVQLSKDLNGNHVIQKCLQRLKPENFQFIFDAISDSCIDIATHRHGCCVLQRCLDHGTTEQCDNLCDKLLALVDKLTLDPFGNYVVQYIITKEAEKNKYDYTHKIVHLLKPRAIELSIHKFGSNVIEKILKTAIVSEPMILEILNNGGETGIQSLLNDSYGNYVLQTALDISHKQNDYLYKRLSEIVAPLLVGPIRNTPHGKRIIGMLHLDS
# assay.procedure: Mg; RNA-MaP; 20 mM Na-HEPES pH 7.4, 30 mM KOAc, 0.75 mM MgCl2, 0.1% Tween-20, 5% glycerol, 0.1 mg/mL BSA, 2 mM DTT; 25 C; 0.0125-409.6 nM protein
# condition.summary: tags: N-His6-TEV cleaved; C-SNAP kept, Cy3B-labelled; label: tethered on chip by stalled RNA polymerase
observation.type: log10 of Kd (log10 of the value in µM)
Annotation: log10 of Kd, µM basis.

Q: Please report the measured log10 of Kd for UCUCUUUUUGUAUAUAUCUCUCUU (ssRNA) [Id_ii_S1_P3E.2_K3.1_C3.2_[C-2T]_H3.1_A3.1_F3.1_T3.2_[A10C]]
Result: -2.14

Q: Give the value of log10 of Kd reported for the following: Ic_S2_P4E.1_K4.1_C4.1_H4.1_A4.1_[T5C]_[A6C]_[T7A]_F4.1_[T8G]_[A9T]_T4.1 (ssRNA) RNA: UUUGAUUAAUAUGAUAUCGUUCUUUCUUGUACCAGUUUCUUUCUCGAUAUCAUAUUAAUCUUU
Result: -0.77

Q: Supply measured log10 of Kd of Ic_S2_P5E.1_K5.1_C5.1_H5.1_A5.1_[T6C]_[A7T]_F5.1_[T9C]_[A10C]_T5.1 (ssRNA) RNA: UUUGAUUAAUAUGAUAUCGUUCUUUCUUGUAUCUUCCUUCUUUCUCGAUAUCAUAUUAAUCUUU in your reply.
Result: -1.85

Q: Note down log10 of Kd recorded for UCUCUUUGUGUAUAUAGUUCUCUU (ssRNA) [Id_ii_S1_P3E.2_K3.1_C3.2_[C-2T]_[T-1G]_H3.1_A3.1_F3.1_T3.2_[T9G]_[A10T]]
Result: -2.20

Q: Return log10 of Kd for the following binder: Ie_S2_P3E.2_K3.1_C3.2_H3.1_A3.1_[+5CT]_F3.1_T3.2 (ssRNA) RNA: UUUGAUUAAUAUGAUAUCGUUCUUUCUCUUGUAUCUAUAUAUUCUUUCUCGAUAUCAUAUUAAUCUUU
Result: -2.43

Q: Respond only with log10 of Kd recorded for UCUCUUACUAUAUUAUUAACUCUCUU (ssRNA) [Id_ii_S1_P5E.3_K5.2_C5.2_[C-2A]_[T-1C]_H5.2_A5.1_F5.1_T5.2_[T11A]_[A12C]]
Result: -0.15

Q: Read the entry Id_ii_S4_P3E.4_K3.3_C3.2_[C-2T]_H3.3_A3.1_F3.1_T3.2_[A10T] (ssRNA) RNA: UUUGACAACUGAUCGUUCUUUCUUUACACUAUAUUUUCUUUCUCGAUCAGUUGUCUUU and write its reported log10 of Kd.
Result: -0.02

Q: Supply recorded log10 of Kd for Ic_S4_P5E.1_K5.1_C5.1_H5.1_A5.1_[T6G]_[A7C]_F5.1_[T8A]_T5.1 (ssRNA) RNA: UUUGACAACUGAUCGUUCUUUCUUGUAUGCAUAUUCUUUCUCGAUCAGUUGUCUUU here.
Result: -1.85

Q: For the binder Id_ii_S4_P3E.3_K3.2_C3.2_H3.2_A3.1_F3.1_T3.2_[A10T] (ssRNA) RNA: UUUGACAACUGAUCGUUCUUUCUCUUAUAUAUAUUUUCUUUCUCGAUCAGUUGUCUUU , report log10 of Kd.
Result: -1.25

Q: Return value of log10 of Kd for input UCUCUUUGUACAAUUCUCUCUU (ssRNA) [Ic_S1_P5E.1_K5.1_C5.1_H5.1_A5.1_[T5C]_[T6A]_F5.1_[A10C]_T5.1] , no commentary.
Result: -1.92

Q: Output log10 of Kd of UCUCUUUGUAACCCCUCUCUU (ssRNA) [Ic_S1_P4E.1_K4.1_C4.1_H4.1_A4.1_[T5A]_[A6C]_[T7C]_F4.1_[T8C]_[A9C]_T4.1]
Result: 0.23

Q: Give log10 of Kd for the following binder: UCUCUUUGUAUCUCUUAUUAUCUCUU (ssRNA) [Ie_S1_P5E.1_K5.1_C5.1_H5.1_[+4TCTC]_A5.1_F5.1_T5.1]
Result: -1.66
